Test system: Leishmania infantum
Assay: Antileishmanial activity against promastigote form of Leishmania infantum MCAN/ES/96/BCN150 after 48 hrs by resazurin fluorescence assay
Type: functional, organism-based
Conditions: Leishmania infantum, MCAN/ES/96/BCN150, 48 h; read-out: IC50
result type: pIC50
Expect pIC50 as a plain number equal to -log10 of the molar concentration.

Task: Please list pIC50 recorded for the compound `O=C(c1cccc(-c2nnn3ccccc23)n1)c1cccc(-c2nnn3ccccc23)n1`
Result: 4.33

Task: In one line, give reported pIC50 of the entry `CCCCCCCCCCCCCCCCOP(=O)([O-])OCC[N+](C)(C)C` .
Result: 4.67

Task: Please look at this compound and report its pIC50: `O=C(c1ccccn1)c1cccc(-c2nnn3ccccc23)n1`
Result: 3.64

Task: Tell me its pIC50 given `O=C(c1cccc(C(=O)c2cccc(-c3nnn4ccccc34)n2)n1)c1cccc(-c2nnn3ccccc23)n1` as the entry.
Result: 4.00

Task: Identify the reported pIC50 for the following entry. `O=C(c1ccccn1)c1cccc2c(-c3ccccc3)nnn12`
Result: 3.76
